- EXPERIMENT_DESCRIPTION: basal CRE-LacZ reporter activity in PC12 – cell-based, unstimulated, primary screen (AID 1145)
- REPORTED_CONDITIONS: no forskolin, luminescence, 4.5 h, called active from +8 up or from −8 down
Calls of active or inactive are those of the source.
Outcome (select one): active, inactive

Completed entries (count: 8):
[[record]]
molecule = "[N-]=[N+]=NCc1ccccc1[C@H]1OC(c2ccc(OCCCO)cc2)=N[C@@]1(Cc1ccccc1N=[N+]=[N-])C(=O)NCC(O)CO (some centres undefined)"
class_assignment = "inactive"

[[record]]
molecule = "Cn1cccc1C(O)C1C=CC2C(=O)N(c3ccccc3)C(=O)C2N1Nc1ccccc1 (centres undefined)"
class_assignment = "inactive"

[[record]]
molecule = "O=C1C2C=CC(C(O)c3cccc(O)c3)N(Nc3ccc([N+](=O)[O-])cc3)C2C(=O)N1c1ccccc1 (centres undefined)"
class_assignment = "inactive"

[[record]]
molecule = "O=C(O)[C@@H]1[C@@H]2C(=O)N(c3ccccc3)C(=O)[C@@H]2C[C@@H]1Sc1ccccc1"
class_assignment = "inactive"

[[record]]
molecule = "COC(=O)[C@@]1(Cc2ccc(F)cc2)[C@H]2c3cc(C(=O)N4CCCC4)n(Cc4ccc(C)c(F)c4F)c3C[C@H]2CN1C(=O)c1ccccc1"
class_assignment = "inactive"

[[record]]
molecule = "COc1ccc([Si](C)(C)[C@H]2[C@H](CC(=O)N3CCC[C@H]3CO)O[C@@]3(C(=O)N(Cc4ccc(N5CCOC5=O)cc4)c4ccccc43)[C@@H]2C)cc1"
class_assignment = "inactive"

[[record]]
molecule = "CCC1=C2CN(Cc3ccccc3)[C@@H](C(=O)Cc3ccccc3)C2C=CCC1 (some centres undefined)"
class_assignment = "inactive"

[[record]]
molecule = "COc1ccc([Si](C)(C)[C@@H]2[C@@H](CCO)O[C@]3(C(=O)N(Cc4ccccc4)c4ccc(NC(=O)[C@H](C)O)cc43)[C@H]2C)cc1"
class_assignment = "active"


Consider now this further molecule.
Which outcome was entered for the molecule COc1cc(OC)c(C(O)C2C=CC3C(=O)N(Cc4ccccc4)C(=O)C3N2n2cnnc2)cc1Br (centres undefined) in this test? inactive

---

- EXPERIMENT_DESCRIPTION: compound effects on differentiated 3T3-L1 adipocyte viability – cell-based, 3T3-L1 adipocytes, calcein-AM fluorescence, 48 h, basal, profiling panel (AID 1163); further: test concentration not given here
- REPORTED_CONDITIONS: 3T3-L1 adipocytes viability, higher = more signal
ENDPOINT: z-score
Give bare numbers.

[[record]]
molecule = "C=CCN1C(=O)[C@]2(CCC(=O)OC(C)(C)C)N=C(c3ccc(OCCCO)cc3)O[C@@H]2c2ccccc21"
endpoint_value = 1.79


Working through the 3 molecules below one at a time, give z-score for each.
1. Cc1ccc(S[C@]2(C(=O)NCC(F)(F)F)CC(=O)N(Cc3cc(C(F)(F)F)cc(C(F)(F)F)c3)[C@@H]2c2ccc(CO)cc2I)cc1
2. CC(C)(C)OC(=O)CC[C@@]1(C(=O)NCC(O)CO)N=C(c2ccc(OCCCO)cc2)O[C@@H]1c1ccccc1CN=[N+]=[N-] (stereo partly specified)
3. CN(C)C(=O)[C@@]1(Cc2ccccc2CN=[N+]=[N-])N=C(c2ccc(OCCCO)cc2)O[C@H]1c1ccccc1N=[N+]=[N-]

[-0.37, 0.478, 2]

Working through the 5 molecules below one at a time, give z-score for each.
1. COC(=O)c1c(CC[C@@H](CO)NC(=O)N2CCC[C@H]2Cn2cc(C3(O)CCCCC3)nn2)oc(C(C)=O)c1C(=O)OC
2. CCOC(=O)C[C@H]1[C@H](OC(=O)c2ccc(C(=O)c3ccccc3)cc2)[C@@H](NC(=O)CC(C)C)c2cc(OCCCO)ccc2N1C(=O)c1ccccc1
3. COC(=O)[C@@]1(Cc2ccc(F)cc2)[C@H]2c3cc(C(=O)N(C)C)n(Cc4ccc(OC(F)(F)F)cc4)c3C[C@H]2CN1C(=O)c1ccccc1
4. COc1cc2c(cc1O)C(c1ccc(CN3CCCC3)cc1)N(Cc1cc3c(cc1Br)OCO3)CC2 (stereo unspecified)
5. CCOC(=O)C[C@H]1[C@H](OC(=O)Cc2ccc3c(c2)OCO3)[C@@H](NC(=O)C2CCCCC2)c2cc(OCCCO)ccc2N1C(=O)c1ccccc1

1. 0.209
2. -0.408
3. -0.859
4. -0.564
5. -0.193

Working through the 2 molecules below one at a time, give z-score for each.
1. COc1ccc(CCNC(=O)[C@@H]2c3ccccc3C(=O)N(C3CCCCC3)[C@H]2c2ccc(CO)cc2)cc1
2. COc1cc(OC)c(C(O)C2C=CC3C(=O)N(Cc4ccccc4)C(=O)C3N2n2cnnc2)cc1Br (stereo unspecified)

1. 1.1
2. 0.767

---

- EXPERIMENT_DESCRIPTION: growth modulation of vineyard yeast isolate – strain RM11-1a, OD600, basal, 24 h, primary screen (AID 1177);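 further: cultures grown under basal conditions with no added stressor; test concentration not given here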
- REPORTED_CONDITIONS: S. cerevisiae RM11-1a growth, OD600, 24 h; higher = more signal, called active from +8 up or from −8 down
Could you please classify the records by z-score using these ranges: one (below -0.1), two (-0.1 to below 0.9), three (0.9 or more)

Completed entries (count: 8):
[[record]]
compound = "C[N+](C)(C)CCCCCCNC(=O)[C@@H]1C[C@@H]2C(=O)N3CCC[C@H]3C(=O)N2[C@@H]1c1ccc(O)cc1"
class_assignment = "two"

[[record]]
compound = "COC(=O)[C@@]1(Cc2ccc(OC)cc2)[C@H]2c3cc(C(=O)N(C)C)n(Cc4ccc(C)o4)c3C[C@H]2CN1C(=O)c1ccccc1"
class_assignment = "three"

[[record]]
compound = "COc1ccc(CCNC(=O)[C@@]2(Cc3ccccc3I)c3ccccc3C(=O)N(C3CCCCC3)[C@H]2c2ccc(CO)cc2)cc1"
class_assignment = "one"

[[record]]
compound = "Cc1ccc(S[C@]2(C(=O)NCC(F)(F)F)CC(=O)N(Cc3cc(C(F)(F)F)cc(C(F)(F)F)c3)[C@@H]2c2ccc(CO)cc2)cc1"
class_assignment = "one"

[[record]]
compound = "C=CCC(OC(C)=O)[C@@H]1[C@@H](N(Cc2ccc(-c3ccccc3)cc2)C(=O)c2ccc(-c3ccccc3)cc2)c2cc(OCCCO)ccc2N1C(=O)c1ccc2ccccc2c1 (some centres not stated)"
class_assignment = "one"

[[record]]
compound = "CC1=C2[C@@H](CCc3ccccc3)OB(O)C[C@@H]2[C@@H]2C(=O)N(Cc3ccccc3)C(=O)[C@@H]2C1"
class_assignment = "one"

[[record]]
compound = "[N-]=[N+]=Nc1ccccc1C[C@]1(C(=O)O)COC(c2ccc(OCCCO)cc2)=N1"
class_assignment = "two"

[[record]]
compound = "CC(C)C(CO)N1C(=O)[C@@H]2[C@H]3C(=O)OCC=C[C@H]3OC23C=CCN(c2ccc(Cl)cc2)C(=O)[C@@H]13 (some centres not stated)"
class_assignment = "three"


Assign a bin to NC(=O)NCC#Cc1ccc2c(c1)[C@]1(C(=O)N2)[C@H](C(=O)N2CCN(c3ncccn3)CC2)[C@H]2C(=O)O[C@H](c3ccccc3)[C@H](c3ccccc3)N2[C@@H]1c1ccc(O)cc1 three

Assign a bin to O=C1OCCC=C[C@H]2OC34C=CCN(Cn5nnc6ccccc65)C(=O)[C@H]3N(CCCO)C(=O)[C@@H]4C12 (some centres not stated) two

Assign a bin to C=CCNC(=O)[C@H]1[C@@H]2C(=O)O[C@@H](c3ccccc3)[C@@H](c3ccccc3)N2[C@@H](c2ccccc2OCCO)[C@]12C(=O)N(C(=O)OCCOC)c1ccc(C#CC3(O)CCCCCC3)cc12 two

Assign a bin to CCCN1C(=O)[C@]2(Cc3ccccc31)N=C(c1ccc(OCCCO)cc1)O[C@@H]2c1ccccc1 three

---

Kindly supply the reported z-score values for the records listed here.
- SYSTEM_NAME: NADPH oxidase 4 (Homo sapiens)
- EXPERIMENT_DESCRIPTION: compounds shifting NOX4 Amplex Red fluorescence – cell-based, HEK293-NOX4, tetracycline-induced, NOX inhibitor project, primary screen (AID 1160)
- REPORTED_CONDITIONS: HEK293-NOX4, Amplex Red H2O2 fluorescence, 45 min; higher = more signal, called active from +8 up or from −8 down
Give bare numbers.

[[record]]
compound = "CCOC(=O)C[C@H]1[C@H](OC(=O)c2cc3ccccc3oc2=O)[C@@H](NC(=O)c2ccccc2)c2cc(OCCCO)ccc2N1C(=O)c1ccccc1"
endpoint = "z-score"
endpoint_value = -1.07

[[record]]
compound = "CCCNC(=O)[C@@]1(C)c2ccccc2C(=O)N(c2ccc(C)cn2)[C@H]1c1ccc(CO)cc1"
endpoint = "z-score"
endpoint_value = 0.155


Return z-score measured with NADPH oxidase 4 (Homo sapiens) given this compound: COC(=O)C1(CC(C)C)C=C2C(=C(c3ccccc3)C(=O)C2C)CN1 (stereo not drawn) -1.48
